Test system: OVCAR-8 ovarian
Assay: NCI-60 one-dose screen, 48 h (100 = growth as untreated, 0 = no growth, -100 = all killed)
Details: 10 µM unless noted
About 83,000 compounds went through this panel and 20% of them were active in at least one assay; those are over-represented in the sample as a whole.
MEASUREMENT NAME: growth (%)
Kindly answer with a numeric value in %, unit omitted.

Field: example entries. Status: answers known.
# MOLECULE, EXPERIMENTAL SYSTEM, RESULT UNIT, growth
rows = [
    ("O=C(CNc1cccnc1)Nc1ccc(C(=O)/C=C/c2ccc(Cl)cc2)cc1", "OVCAR-8 ovarian", "%", 98.1),
    ("CCOC(=O)n1cnc2c(Cl)ncnc21", "OVCAR-8 ovarian", "%", 65),
    ("CC(=O)c1cc2c(c(O)c1C)C(=O)C(=O)c1c(O)cccc1-2", "OVCAR-8 ovarian", "%", -60.6),
    ("Cc1c(F)cccc1NC(=O)c1sc2nc3c(cc2c1N)CCCCC3", "OVCAR-8 ovarian", "%", 80.3),
    ("Clc1ccc(OCc2nc(-c3ccccc3)n[nH]2)c(Cl)c1", "OVCAR-8 ovarian", "%", 96.5),
    ("c1ccc2nc(Cn3cc[n+](Cc4ccc5ccccc5n4)c3)ccc2c1", "OVCAR-8 ovarian", "%", 76.2),
]

Asked: Tell us which growth value is on record for COc1ccc2c(c1)C(=O)/C(=C/c1ccc(OCC(=O)c3ccc(Cl)cc3)cc1)O2
Given back: 84.9

Asked: // fetch growth given entry NC(N)=N/N=C/c1ccc([N+](=O)[O-])cc1
Given back: 108

Asked: In one line, give reported growth of the entry O=C(O)c1cccc2oc(-c3ccccc3O)nc12 .
Given back: 31.9

Asked: # return recorded growth for entry COc1ccc2c(c1)C(=O)/C(=C/c1cccc(OCC(=O)c3ccccc3)c1)O2
Given back: -29.9

====

The following compounds are shown together with reported growth values.
Tested on: M14 melanoma
Assay: NCI-60 one-dose screen, 48 h (100 = growth as untreated, 0 = no growth, -100 = all killed)
Settings: 10 µM unless noted
About 83,000 compounds went through this panel and 20% of them were active in at least one assay; those are over-represented in the sample as a whole.
Output spec: scalar in %, unitless text.

These solved cases illustrate the format of a correct answer.
# COMPOUND, MEASUREMENT NAME, RESULT UNIT, RECORDED RESULT
records = [
    ("Cc1cn(C2CC(F)C(CO)O2)c(=O)[nH]c1=O (stereo unspecified)", "growth", "%", 89),
    ("COc1ccc(-c2cnc(-c3ccc(F)cc3)[nH]2)cc1", "growth", "%", -17.3),
    ("COc1cc(-c2nc(SCC(=O)Nc3ccc(C(C)=O)cc3)[nH]c(=O)c2C#N)cc(OC)c1OC", "growth", "%", 5.17),
    ("Nc1nc(-c2cc3c(cc2Cl)NC(=O)/C3=C/c2ccccc2)cs1", "growth", "%", 60.6),
    ("COC(=O)CCCNS(=O)(=O)c1cc(C(=O)Nc2ccc(NC(=O)c3cc(S(=O)(=O)NCCCC(=O)OC)c(O)c(O)c3O)cc2)c(O)c(O)c1O", "growth", "%", 98.3),
    ("COc1ccccc1C(OC(C)=O)OC(C)=O", "growth", "%", 98.3),
    ("O=C1OC(c2ccc(-c3ccccc3)cc2)=C/C1=C/C=C/c1ccccc1", "growth", "%", 112),
    ("FC(F)(F)c1cn(CCN2CCOCC2)c2ncnc(Cl)c12", "growth", "%", 38),
    ("COc1cc(Cn2cc3c(c2)-c2onc(CO)c2CC3)cc(OC)c1OC", "growth", "%", 85.8),
    ("CC(C)Cn1cnc2c3ccccc3nc(NCn3nc(-c4cc(Cl)cc(Cl)c4Cl)oc3=S)c21", "growth", "%", 79.9),
]

Now for another entry.
Asked: # return recorded growth for entry Nc1ncc(-c2ccc3ncnc(Nc4ccc(F)c(Cl)c4)c3c2)cn1
Given back: 87.5

All values here come from PubChem BioAssay (NCI).
